- ASSAY_SYSTEM: Melanocortin receptor 5 (Mus musculus) (UniProt P41149)
- Sequence (P41149 whole entry): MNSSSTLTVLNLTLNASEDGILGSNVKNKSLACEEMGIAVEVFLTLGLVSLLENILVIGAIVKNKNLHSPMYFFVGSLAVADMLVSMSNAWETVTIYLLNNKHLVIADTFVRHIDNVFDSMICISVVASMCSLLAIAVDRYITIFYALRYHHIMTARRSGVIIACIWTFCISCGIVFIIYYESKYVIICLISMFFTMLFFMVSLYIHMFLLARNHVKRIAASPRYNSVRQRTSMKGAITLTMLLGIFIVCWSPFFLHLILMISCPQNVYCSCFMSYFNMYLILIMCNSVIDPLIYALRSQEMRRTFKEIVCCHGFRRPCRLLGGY
- PROCEDURE_SUMMARY: Inverse agonist activity at mouse melanocortin receptor 5 expressed in HEK293 cells assessed as decrease in cAMP accumulation at 100 uM after 2 hrs by AlphaScreen assay relative to control
- Format: functional, cell-based
- Parameters: scale not given: the % may be the effect or the level left
Non-standard residues stand in square brackets, D forms with d. Residues, ends and D or L forms follow the SMILES beside them.
ASSAY_ENDPOINT: Activity (%)
Response body: numeric value in %, unit text excluded.

Examples from the recorded data:
INSERT INTO results (molecule, recorded_value) VALUES
  ('N=C(N)NCCC[C@@H]1NC(=O)[C@@H]2CCCN2C(=O)[C@H]2CCCN2C(=O)[C@H](Cc2ccccc2)NC(=O)[C@H](CO)NC(=O)[C@H](CC(N)=O)NC(=O)[C@H](Cc2ccccc2)NC(=O)[C@H](Cc2ccccc2)NC1=O (cyclo(RFFNSF[dP]P))', 30),
  ('N=C(N)NCCC[C@@H]1NC(=O)[C@@H]2CCCN2C(=O)[C@H]2CCCN2C(=O)[C@H](Cc2ccccc2)NC(=O)[C@H](CC(=O)O)NC(=O)[C@H](CC(N)=O)NC(=O)[C@H](Cc2ccccc2)NC(=O)[C@H](Cc2ccccc2)NC1=O (cyclo(RFFNDF[dP]P))', 25);

Memo: C[C@@H]1NC(=O)[C@H](CC(=O)O)NC(=O)[C@H](Cc2ccccc2)NC(=O)[C@H](Cc2ccccc2)NC(=O)[C@H](CCCNC(=N)N)NC(=O)[C@@H]2CCCN2C(=O)[C@H]2CCCN2C(=O)[C@H](Cc2ccccc2)NC1=O , reported Activity: 25

Value of measured Activity for the entry C[C@@H]1NC(=O)[C@H](CC(N)=O)NC(=O)[C@H](Cc2ccccc2)NC(=O)[C@H](Cc2ccccc2)NC(=O)[C@H](CCCNC(=N)N)NC(=O)[C@@H]2CCCN2C(=O)[C@H]2CCCN2C(=O)[C@H](C)NC1=O (cyclo(RFFNAA[dP]P)) : 25

Input N=C(N)NCCC[C@@H]1NC(=O)[C@@H]2CCCN2C(=O)[C@H]2CCCN2C(=O)[C@H](Cc2ccccc2)NC(=O)CNC(=O)[C@H](CC(N)=O)NC(=O)[C@H](Cc2ccccc2)NC(=O)[C@H](Cc2ccccc2)NC1=O (cyclo(RFFNGF[dP]P)) . Output Activity: 35

* * *

- ASSAY_SYSTEM: UniProt:Q01727
- Sequence (Q01727 whole entry, looked up): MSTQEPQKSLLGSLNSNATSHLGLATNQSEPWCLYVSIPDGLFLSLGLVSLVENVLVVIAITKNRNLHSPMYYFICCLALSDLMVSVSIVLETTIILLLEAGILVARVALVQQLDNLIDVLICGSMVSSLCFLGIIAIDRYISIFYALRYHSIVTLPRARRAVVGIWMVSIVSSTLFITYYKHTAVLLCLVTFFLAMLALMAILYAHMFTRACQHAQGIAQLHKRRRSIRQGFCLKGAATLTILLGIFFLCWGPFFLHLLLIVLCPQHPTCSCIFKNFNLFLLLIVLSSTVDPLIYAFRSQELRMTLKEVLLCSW
- PROCEDURE_SUMMARY: Agonist activity at mouse melanocortin receptor 1 expressed in HEK293 cells assessed as increase in cAMP accumulation at 100 uM after 2 hrs by AlphaScreen assay relative to control
- Format: functional, cell-based
Non-standard residues stand in square brackets, D forms with d. Residues, ends and D or L forms follow the SMILES beside them.
ASSAY_ENDPOINT: Activity (%)
Write the answer as a number in %, unit excluded.

INSERT INTO assay_data (compound, recorded_value) VALUES
  ('N=C(N)NCCC[C@@H]1NC(=O)[C@@H]2CCCN2C(=O)[C@H]2CCCN2C(=O)[C@H](Cc2ccccc2)NC(=O)[C@H](CC(=O)O)NC(=O)[C@H](CC(N)=O)NC(=O)[C@H](Cc2ccccc2)NC(=O)[C@H](Cc2ccccc2)NC1=O (cyclo(RFFNDF[dP]P))', 65);

The compound N=C(N)NCCC[C@@H]1NC(=O)[C@@H]2CCCN2C(=O)[C@H]2CCCN2C(=O)[C@H](Cc2ccccc2)NC(=O)[C@H](Cc2ccccc2)NC(=O)[C@H](CC(N)=O)NC(=O)[C@H](Cc2ccccc2)NC(=O)[C@H](Cc2ccccc2)NC1=O showed Activity equal to 70

Activity reading for N=C(N)NCCC[C@@H]1NC(=O)[C@@H]2CCCN2C(=O)[C@H]2CCCN2C(=O)[C@H](Cc2ccccc2)NC(=O)[C@H](CCCCN)NC(=O)[C@H](CC(N)=O)NC(=O)[C@H](Cc2ccccc2)NC(=O)[C@H](Cc2ccccc2)NC1=O : 60

Recorded result, CC(C)[C@@H]1NC(=O)[C@H](Cc2ccccc2)NC(=O)[C@H](Cc2ccccc2)NC(=O)[C@H](CCCNC(=N)N)NC(=O)[C@@H]2CCCN2C(=O)[C@H]2CCCN2C(=O)[C@H](Cc2ccccc2)NC(=O)[C@H](C)NC1=O , Activity: 55

# Activity of N=C(N)NCCC[C@@H]1NC(=O)[C@@H]2CCCN2C(=O)[C@H]2CCCN2C(=O)[C@H](Cc2ccccc2)NC(=O)[C@H](CCC(=O)O)NC(=O)[C@H](CC(N)=O)NC(=O)[C@H](Cc2ccccc2)NC(=O)[C@H](Cc2ccccc2)NC1=O (cyclo(RFFNEF[dP]P)) = 60

// C[C@@H]1NC(=O)[C@H](CN)NC(=O)[C@H](Cc2ccccc2)NC(=O)[C@H](Cc2ccccc2)NC(=O)[C@H](CCCNC(=N)N)NC(=O)[C@@H]2CCCN2C(=O)[C@H]2CCCN2C(=O)[C@H](Cc2ccccc2)NC1=O : Activity value = 30

Value of measured Activity for the entry C[C@@H]1NC(=O)[C@H](Cc2c[nH]c3ccccc23)NC(=O)[C@H](Cc2ccccc2)NC(=O)[C@H](Cc2ccccc2)NC(=O)[C@H](CCCNC(=N)N)NC(=O)[C@@H]2CCCN2C(=O)[C@H]2CCCN2C(=O)[C@H](Cc2ccccc2)NC1=O (cyclo(RFFWAF[dP]P)) : 80

According to the records, this compound CC(C)C[C@@H]1NC(=O)[C@H](CC(N)=O)NC(=O)[C@H](Cc2ccccc2)NC(=O)[C@H](Cc2ccccc2)NC(=O)[C@H](CCCNC(=N)N)NC(=O)[C@@H]2CCCN2C(=O)[C@H]2CCCN2C(=O)[C@H](Cc2ccccc2)NC1=O displays Activity of 80

The recorded Activity for entry C[C@@H]1NC(=O)[C@H](CC(N)=O)NC(=O)[C@H](Cc2ccccc2)NC(=O)[C@H](Cc2ccccc2)NC(=O)[C@H](CCCNC(=N)N)NC(=O)[C@@H]2CCCN2C(=O)[C@H]2CCCN2C(=O)[C@H](Cc2ccccc2)NC1=O equals 25
